- Tested on: SD rats
- measurement.description: ED50 and LD50 test concerning anesthesia (sequential method) in rats
- Type: in vivo
- measurement.context: 6 mg/ml solution
Outcome label depends on TI Rat relative to 3: at/above gives class 1, below gives class 0.

INSERT INTO measurements (molecule, measurement_target, label_value) VALUES
  ('CC(C)c1cccc(C(C)C)c1OC(=O)[C@@H](F)CCOP(=O)([O-])[O-].[Na+].[Na+]', 'SD rats', 'class 0'),
  ('CC(C)c1cccc(C(C)C)c1OC(=O)C(F)CC(=O)[O-].[Na+] (centres unmarked)', 'SD rats', 'class 1'),
  ('CC(C)c1cccc(C(C)C)c1OC(=O)C(F)CCC(=O)[O-].[Na+] (racemic)', 'SD rats', 'class 1'),
  ('CC(C)c1cccc(C(C)C)c1OC(=O)[C@H](F)CCN(C)C.Cl [Compound E2]', 'SD rats', 'class 1');

Okay, now this molecule:
Request: Answer whether TI Rat of CC(C)c1cccc(C(C)C)c1O [Propofol, reference compound] is greater than or equal to 3.
Result: class 1

----------
- measurement.description: In vitro dissociation of the water soluble taxane derivatives in blood plasma of rat
- Type: in vitro ADME, SD rats
- measurement.context: 37° C., 5 min
measured.parameter: dissociation percent (%)
Numbers only, in %.

INSERT INTO measurements (compound, measured_parameter, uom, result_number) VALUES
  ('COC1C(=O)C2(C)C(OC)CC3OCC3(OC(C)=O)C2C(OC(=O)c2ccccc2)C2(O)CC(OC(=O)C(OC(=O)C(CCN)C(F)F)C(NC(=O)OC(C)(C)C)c3ccccc3)C(C)=C1C2(C)C.O=S(=O)([O-])O.[Na+] (stereo not shown)', 'dissociation percent', '%', 86.5);

Could you report dissociation percent for every entry in the following list?
1. CC(=O)O[C@H]1C(=O)[C@@]2(C)[C@H]([C@H](OC(=O)c3ccccc3)[C@]3(O)C[C@H](OC(=O)[C@H](OC(=O)[C@H](F)CCN(C)C)[C@@H](NC(=O)c4ccccc4)c4ccccc4)C(C)=C1C3(C)C)[C@]1(OC(C)=O)CO[C@@H]1C[C@@H]2O.CS(=O)(=O)O
2. COC1C(=O)C2(C)C(OC)CC3OCC3(OC(C)=O)C2C(OC(=O)c2ccccc2)C2(O)CC(OC(=O)C(OC(=O)C(F)CCN(C)C)C(NC(=O)OC(C)(C)C)c3ccccc3)C(C)=C1C2(C)C.Cl (stereo not shown)
3. CC(=O)O[C@H]1C(=O)[C@@]2(C)[C@H]([C@H](OC(=O)c3ccccc3)[C@]3(O)C[C@H](OC(=O)[C@H](OC(=O)[C@@H](F)CCN(C)C)[C@@H](NC(=O)c4ccccc4)c4ccccc4)C(C)=C1C3(C)C)[C@]1(OC(C)=O)CO[C@@H]1C[C@@H]2O.CS(=O)(=O)O
4. CC(=O)O[C@@]12CO[C@@H]1C[C@H](O)[C@@]1(C)C(=O)[C@H](O)C3=C(C)[C@@H](OC(=O)[C@H](OC(=O)C(F)(F)CCCCCN4CC4)[C@@H](NC(=O)OC(C)(C)C)c4ccccc4)C[C@@](O)([C@@H](OC(=O)c4ccccc4)[C@H]21)C3(C)C.CS(=O)(=O)O
5. CCN(CC)CC[C@](C)(C(=O)O[C@@H](C(=O)O[C@H]1C[C@@]2(O)[C@@H](OC(=O)c3ccccc3)[C@@H]3[C@]4(OC(C)=O)CO[C@@H]4C[C@H](OC)[C@@]3(C)C(=O)[C@H](OC)C(=C1C)C2(C)C)[C@@H](NC(=O)OC(C)(C)C)c1ccccc1)C(F)(F)F.CS(=O)(=O)O
6. CC(=O)O[C@H]1C(=O)[C@@]2(C)[C@H]([C@H](OC(=O)c3ccccc3)[C@]3(O)C[C@H](OC(=O)[C@H](OC(=O)C(F)(CCCCCCN(C)C4CCCC4)C(F)(F)F)[C@@H](NC(=O)c4ccccc4)c4ccccc4)C(C)=C1C3(C)C)[C@]1(OC(C)=O)CO[C@@H]1C[C@@H]2O.CS(=O)(=O)O (stereo partly shown)

Result:
1. 97.0
2. 89.1
3. 96.5
4. 55.7
5. 89.6
6. 46.2
